Tested on: W2
assay.name: qHTS profiling for inhibitors of Plasmodium falciparum proliferation (AID 504749); also: nearly all actives have a fitted effect of over 60% in size; also: potency is read from the fitted curve at half-maximal effect
particulars: P. falciparum in erythrocytes, SYBR Green DNA, 72 h; series mostly up to 28.7 µM
Results filed as inconclusive are left out. Active and inactive are the calls of the source. Calls follow the shape of the dose curve; as a rule, active = well fitted inhibition curve with a large enough effect; inconclusive = small, poorly fitted or top-dose-only effect; inactive = flat fitted curve, though single readings scatter.
assay.readout: Potency

molecule | target.desc | assay.readout | recorded.value
CN1CCN(c2cc3c(cc2F)c(=O)c(C(=O)O)cn3-c2ccc(F)cc2)CC1 | W2 | Potency | 12 µM (active)
CC1=C(C(=O)O)N2C(=O)[C@@H](NC(=O)[C@H](N)c3ccccc3)[C@H]2SC1 | W2 | Potency | inactive
CCCCN=C(N)N=C(N)N | W2 | Potency | inactive
Nc1ccc(S(=O)(=O)Nc2cnc3ccccc3n2)cc1 | W2 | Potency | inactive
CCNC(=O)NCc1cccc(Cl)c1 | W2 | Potency | inactive
CC(=O)N[C@@H](CCC(=O)O)C(=O)O | W2 | Potency | inactive
CCCc1ncc(C[n+]2ccccc2C)c(N)n1 | W2 | Potency | inactive
Cc1cc2c(OCC(CNC(C)(C)C)OC(=O)c3ccccc3)cccc2[nH]1 (stereo unspecified) | W2 | Potency | 2.13 µM (active)
CC(=O)Nc1ccc(S(=O)(=O)Nc2ccc([N+](=O)[O-])cc2)cc1 | W2 | Potency | inactive
COc1cc(C(=S)N2CCOCC2)ccc1O | W2 | Potency | inactive
CC(=O)Nc1ccc(OCC(O)CNC(C)C)cc1 (stereo unspecified) | W2 | Potency | inactive
CC(C)Nc1cccnc1N1CCN(C(=O)c2cc3cc(NS(C)(=O)=O)ccc3[nH]2)CC1 | W2 | Potency | 9.53 µM (active)
O=C(O)CCNC(=O)c1ccccc1 | W2 | Potency | inactive
CN(C)CCN1C(=O)c2ccccc2N(C)c2ccccc21 | W2 | Potency | 2.13 µM (active)
NC(=O)c1ccccc1O | W2 | Potency | inactive
COc1ccc(-c2cc(C(F)F)nn2-c2ccc(S(N)(=O)=O)cc2)cc1F | W2 | Potency | inactive
